system: Mycobacterium tuberculosis Erdman (autoluminescent); test: AUC25, normalised area under dose response up to IC25 (fraction (0-1)); higher = more potent at low dose; conditions: in vitro model: cholesterol 0.05 mM; time point: constant (~7 days, model-specific)
Measured parameter: AUC25
Give a plain numeric answer without units written out.

CC(=O)NC[C@H]1CN(c2ccc(N3CCOCC3)c(F)c2)C(=O)O1 [linezolid] + CO[C@H]1/C=C/O[C@@]2(C)Oc3c(C)c(O)c4c(O)c(c(/C=N/N5CCN(C)CC5)c(O)c4c3C2=O)NC(=O)/C(C)=C\C=C\[C@H](C)[C@H](O)[C@@H](C)[C@@H](O)[C@@H](C)[C@H](OC(C)=O)[C@@H]1C
0.154
NNC(=O)c1ccncc1 [isoniazid] + CO[C@H]1/C=C/O[C@@]2(C)Oc3c(C)c(O)c4c(O)c(c(/C=N/N5CCN(C)CC5)c(O)c4c3C2=O)NC(=O)/C(C)=C\C=C\[C@H](C)[C@H](O)[C@@H](C)[C@@H](O)[C@@H](C)[C@H](OC(C)=O)[C@@H]1C [rifampicin]
0.107

Data request: Tell me reported AUC25 for NC(=O)c1cnccn1 [pyrazinamide] + CO[C@H]1/C=C/O[C@@]2(C)Oc3c(C)c(O)c4c(O)c(c(/C=N/N5CCN(C6CCCC6)CC5)c(O)c4c3C2=O)NC(=O)/C(C)=C\C=C\[C@H](C)[C@H](O)[C@@H](C)[C@@H](O)[C@@H](C)[C@H](OC(C)=O)[C@@H]1C , tested with Mycobacterium tuberculosis Erdman (autoluminescent).
Data returned: 0.127

====

test system: Mycobacterium tuberculosis Erdman (autoluminescent); experiment: total FIC50 (Loewe) at 50% inhibition, three-drug combination (log2); higher = more antagonistic; details: in vitro model: butyrate; time point: constant (~7 days, model-specific)
total FIC50 by entry:
// return a plain number; no unit text

CC(C)/N=c1\cc2n(-c3ccc(Cl)cc3)c3ccccc3nc-2cc1Nc1ccc(Cl)cc1 [clofazimine] + O=[N+]([O-])c1cn2c(n1)OC[C@@H](OCc1ccc(OC(F)(F)F)cc1)C2 [pretomanid] + CO[C@H]1/C=C/O[C@@]2(C)Oc3c(C)c(O)c4c(O)c(c(/C=N/N5CCN(C)CC5)c(O)c4c3C2=O)NC(=O)/C(C)=C\C=C\[C@H](C)[C@H](O)[C@@H](C)[C@@H](O)[C@@H](C)[C@H](OC(C)=O)[C@@H]1C [rifampicin]
0.432

Please look at the following compound next.
Data request: Item under review: CC(=O)NC[C@H]1CN(c2ccc(N3CCOCC3)c(F)c2)C(=O)O1 [linezolid] + NC(=O)c1cnccn1 [pyrazinamide] + CO[C@H]1/C=C/O[C@@]2(C)Oc3c(C)c(O)c4c(O)c(c(/C=N/N5CCN(C)CC5)c(O)c4c3C2=O)NC(=O)/C(C)=C\C=C\[C@H](C)[C@H](O)[C@@H](C)[C@@H](O)[C@@H](C)[C@H](OC(C)=O)[C@@H]1C [rifampicin] . Reported total FIC50?
Data returned: -0.0235

====

test system: Mycobacterium tuberculosis Erdman (autoluminescent); test: AUC25, normalised area under dose response up to IC25 (three-drug combination) (fraction (0-1)); higher = more potent at low dose; settings: in vitro model: cholesterol 0.05 mM; time point: terminal (~4-5 doublings, model-specific)
Overview of recorded AUC25 for various compounds
Keep the answer to the number alone.

COc1nc2ccc(Br)cc2cc1[C@@H](c1ccccc1)[C@@](O)(CCN(C)C)c1cccc2ccccc12 [bedaquiline] + CC(C)/N=c1\cc2n(-c3ccc(Cl)cc3)c3ccccc3nc-2cc1Nc1ccc(Cl)cc1 [clofazimine] + CC(=O)NC[C@H]1CN(c2ccc(N3CCOCC3)c(F)c2)C(=O)O1 [linezolid]
0.137
CC[C@@H](CO)NCCN[C@@H](CC)CO [ethambutol] + NNC(=O)c1ccncc1 [isoniazid] + CO[C@H]1/C=C/O[C@@]2(C)Oc3c(C)c(O)c4c(O)c(c(/C=N/N5CCN(C6CCCC6)CC5)c(O)c4c3C2=O)NC(=O)/C(C)=C\C=C\[C@H](C)[C@H](O)[C@@H](C)[C@@H](O)[C@@H](C)[C@H](OC(C)=O)[C@@H]1C [rifapentine]
0.0679
CC(C)/N=c1\cc2n(-c3ccc(Cl)cc3)c3ccccc3nc-2cc1Nc1ccc(Cl)cc1 [clofazimine] + CC[C@@H](CO)NCCN[C@@H](CC)CO [ethambutol] + COc1c(N2C[C@@H]3CCCN[C@@H]3C2)c(F)cc2c(=O)c(C(=O)O)cn(C3CC3)c12 [moxifloxacin]
0.117

Data request: Entry under review: NNC(=O)c1ccncc1 [isoniazid] + COc1c(N2C[C@@H]3CCCN[C@@H]3C2)c(F)cc2c(=O)c(C(=O)O)cn(C3CC3)c12 [moxifloxacin] + CO[C@H]1/C=C/O[C@@]2(C)Oc3c(C)c(O)c4c(O)c(c(/C=N/N5CCN(C)CC5)c(O)c4c3C2=O)NC(=O)/C(C)=C\C=C\[C@H](C)[C@H](O)[C@@H](C)[C@@H](O)[C@@H](C)[C@H](OC(C)=O)[C@@H]1C [rifampicin] . Reported AUC25?
Data returned: 0.0746

Data request: Which AUC25 reading was recorded for the compound CC(C)/N=c1\cc2n(-c3ccc(Cl)cc3)c3ccccc3nc-2cc1Nc1ccc(Cl)cc1 [clofazimine] + COc1c(N2C[C@@H]3CCCN[C@@H]3C2)c(F)cc2c(=O)c(C(=O)O)cn(C3CC3)c12 [moxifloxacin] + NC(=O)c1cnccn1 [pyrazinamide] ?
Data returned: 0.112

Data request: For the compound shown here, COc1nc2ccc(Br)cc2cc1[C@@H](c1ccccc1)[C@@](O)(CCN(C)C)c1cccc2ccccc12 [bedaquiline] + CC(=O)NC[C@H]1CN(c2ccc(N3CCOCC3)c(F)c2)C(=O)O1 [linezolid] + CO[C@H]1/C=C/O[C@@]2(C)Oc3c(C)c(O)c4c(O)c(c(/C=N/N5CCN(C)CC5)c(O)c4c3C2=O)NC(=O)/C(C)=C\C=C\[C@H](C)[C@H](O)[C@@H](C)[C@@H](O)[C@@H](C)[C@H](OC(C)=O)[C@@H]1C [rifampicin] , give the reported AUC25.
Data returned: 0.135

Data request: Report AUC25 for CC(C)/N=c1\cc2n(-c3ccc(Cl)cc3)c3ccccc3nc-2cc1Nc1ccc(Cl)cc1 [clofazimine] + CC[C@@H](CO)NCCN[C@@H](CC)CO [ethambutol] + O=[N+]([O-])c1cn2c(n1)OC[C@@H](OCc1ccc(OC(F)(F)F)cc1)C2 [pretomanid] please.
Data returned: 0.131

Data request: Can you share its AUC25? I mean this compound: COc1nc2ccc(Br)cc2cc1[C@@H](c1ccccc1)[C@@](O)(CCN(C)C)c1cccc2ccccc12 [bedaquiline] + CC(=O)NC[C@H]1CN(c2ccc(N3CCOCC3)c(F)c2)C(=O)O1 [linezolid] + CO[C@H]1/C=C/O[C@@]2(C)Oc3c(C)c(O)c4c(O)c(c(/C=N/N5CCN(C6CCCC6)CC5)c(O)c4c3C2=O)NC(=O)/C(C)=C\C=C\[C@H](C)[C@H](O)[C@@H](C)[C@@H](O)[C@@H](C)[C@H](OC(C)=O)[C@@H]1C [rifapentine]
Data returned: 0.121

Data request: Given the compound NC(=O)c1cnccn1 [pyrazinamide] + CO[C@H]1/C=C/O[C@@]2(C)Oc3c(C)c(O)c4c(O)c(c(/C=N/N5CCN(C6CCCC6)CC5)c(O)c4c3C2=O)NC(=O)/C(C)=C\C=C\[C@H](C)[C@H](O)[C@@H](C)[C@@H](O)[C@@H](C)[C@H](OC(C)=O)[C@@H]1C [rifapentine] + CO[C@H]1/C=C/O[C@@]2(C)Oc3c(C)c(O)c4c(O)c(c(/C=N/N5CCN(C)CC5)c(O)c4c3C2=O)NC(=O)/C(C)=C\C=C\[C@H](C)[C@H](O)[C@@H](C)[C@@H](O)[C@@H](C)[C@H](OC(C)=O)[C@@H]1C , what is its reported AUC25?
Data returned: 0.0851

Data request: For the compound COc1c(N2C[C@@H]3CCCN[C@@H]3C2)c(F)cc2c(=O)c(C(=O)O)cn(C3CC3)c12 [moxifloxacin] + O=[N+]([O-])c1cn2c(n1)OC[C@@H](OCc1ccc(OC(F)(F)F)cc1)C2 [pretomanid] + NC(=O)c1cnccn1 [pyrazinamide] , what AUC25 is on record?
Data returned: 0.102

Data request: Can you look up the measured AUC25 of COc1nc2ccc(Br)cc2cc1[C@@H](c1ccccc1)[C@@](O)(CCN(C)C)c1cccc2ccccc12 [bedaquiline] + CC[C@@H](CO)NCCN[C@@H](CC)CO [ethambutol] + CO[C@H]1/C=C/O[C@@]2(C)Oc3c(C)c(O)c4c(O)c(c(/C=N/N5CCN(C6CCCC6)CC5)c(O)c4c3C2=O)NC(=O)/C(C)=C\C=C\[C@H](C)[C@H](O)[C@@H](C)[C@@H](O)[C@@H](C)[C@H](OC(C)=O)[C@@H]1C [rifapentine] for me?
Data returned: 0.0689

Values compiled from the supplement of paper PMC8617591.
